System: M14 melanoma
Assay: NCI-60 one-dose screen, 48 h
Settings: 10 µM unless noted
Protocol: Growth inhibition of the M14 human tumor cell line is measured as a screen for anti-cancer activity. Cells are grown in 96 well plates and exposed to the test compound for 48 hours. Compounds are tested at a single concentration, which is 10^-5 M for most compounds. The reported endpoint is percent growth (GI% or GIPRCNT), where numbers from 0 - 100% represent growth inhibition, and numbers from -100% - 0 represent cell death. For example, a value of 40 represents 60% growth inhibition. […]
Compounds without any hit were thinned out: in the full panel of roughly 83,000, 20% have a hit. Calls of active or inactive are those of the source. Rule for the calls: active = growth percent below 10; inactive = the rest.
Could you please pick one outcome from this set? active, inactive

Some solved entries appear below for comparison.
* OCc1cccnc1 | inactive
* c1cc(CNCCNCc2ccncc2)ccn1 | inactive
* OCC(O)COc1ccc(Cl)cc1Cl (configuration not stated) | inactive
* CC1(C)CC(=O)C=C(N)C1 | inactive
* COc1cccc(C(=O)NNC(=O)c2cccc3ccccc23)c1 | inactive
* c1ccc2c(NCCCN3CCN(CCCNc4c5ccccc5nc5ccccc45)CC3)c3ccccc3nc2c1 | active

Attention now shifts to the item below.
Lab log entry: CCNc1ccc2ccccc2c1N=Nc1ccc(N=Nc2ccccc2)cc1 — outcome as called in the assay? inactive

* * *

Test system: MOLT-4 leukemia
Experiment: NCI-60 one-dose screen, 48 h (100 = growth as untreated, 0 = no growth, -100 = all killed)
Conditions: 10 µM unless noted
About 83,000 compounds went through this panel and 20% of them were active in at least one assay; those are over-represented in the sample as a whole.
OBSERVATION_TYPE: growth (%)
Unit % implied. Number only.

• Nc1ncnc(Nc2ccc(C(F)(F)F)cc2)n1 = 96.6
• O=C1Nc2ccccc2/C1=C\c1ccccc1O = 74.6
• CC(=O)c1ccc(C)cc1 = 107

Query (molecule): CC(=O)C[n+]1ccc(C)cc1Sc1ccccc1C ; field requested: growth 54.7

Query (molecule): CCCC(OC(C)=O)c1ccc2c(c1)OCO2 (centres undefined) ; field requested: growth 107

Query (molecule): CCN1CCCC(N2c3ccccc3Sc3ccccc32)C1 (centres undefined) ; field requested: growth 96.3

Query (molecule): Cc1ccc[n+](CCC(N)=O)c1 ; field requested: growth 90.9

Query (molecule): OCC1OC(n2ccc3c2ncn2ncnc32)C(O)C1O (centres undefined) ; field requested: growth 16.1

* * *

Tested on: BT-549 breast
Assay: NCI-60 one-dose screen, 48 h (100 = growth as untreated, 0 = no growth, -100 = all killed)
Conditions: 10 µM unless noted
The panel holds about 83,000 compounds, 20% with a hit somewhere; the sample as a whole holds those more often.
Listed next: entries and their corresponding growth.
Unit % implied. Number only.

- CNc1ccccc1C(=O)N/N=C/C=C/c1ccccc1: 47.3
- CC(C)(C)[Si](C)(C)OCC1OC(n2cnc3c(N)ncnc32)CC1OS(C)(=O)=O (stereo unspecified): 107
- O=S(Cc1ccccc1)/C(=C/NC(=S)Nc1cc(Cl)ccc1Cl)c1ccccc1 (stereo unspecified): 96.5
- O=C(NC(=S)N1CC=CCC1)c1ccccc1: 93.6
- c1ccc(-c2ccc3ccccc3c2)cc1: 98.8

Query (compound): CCC(C)c1c(N)n(S(=O)(=O)c2ccc(C)cc2)oc1=O (stereo unspecified) ; field requested: growth 110

* * *

Test system: OVCAR-4 ovarian
Assay: NCI-60 one-dose screen, 48 h (100 = growth as untreated, 0 = no growth, -100 = all killed)
Conditions: 10 µM unless noted
Compounds without any hit were thinned out: in the full panel of roughly 83,000, 20% have a hit.
Listed next: entries and their corresponding growth.
Unit % implied. Number only.

Examples with their reported growth follow.
• OCCOc1ccc(-c2cc(-c3ccccn3)nc(-c3ccccn3)c2)cc1 = 5.18
• C=CC(=O)OC1CCC(C(C)(C)CC)CC1 (stereo not given) = 105
• CC(=O)NNC(=S)N/C=C/c1c(C)ccc([N+](=O)[O-])c1[N+](=O)[O-] = 106

Query (molecule): CC(=O)O[C@H]1CC[C@]2(C)C3=C(C(=O)C[C@H]2C1(C)C)[C@]1(C)CC[C@H]([C@H](C)CCC(=O)O)[C@@]1(C)CC3=O ; field requested: growth 94.7

Query (molecule): COc1cc(CC#N)c([N+](=O)[O-])cc1OC ; field requested: growth 128

Query (molecule): CN=S(=O)(OCCCCCOS(=O)(=NC)c1ccc(C)cc1)c1ccc(C)cc1 (stereo not given) ; field requested: growth 82.8

Query (molecule): CC(=O)c1cccc(N(C)S(=O)(=O)c2ccc(C)cc2)c1 ; field requested: growth 87.7

Query (molecule): Nc1cc2c(cc1Cl)C(=O)c1ccccc1C2=O ; field requested: growth 9.39

Query (molecule): CCCNS(=O)(=O)c1ccc(Cl)cc1 ; field requested: growth 102

Query (molecule): C1Cc2onc(-c3noc4c3CCC4)c2C1 ; field requested: growth 105

Query (molecule): Cc1ccc(S(=O)(=O)NC(=O)NCCSSCCNC(=O)NS(=O)(=O)c2ccc(C)cc2)cc1 ; field requested: growth 112

* * *

Test system: DU-145 prostate
Assay: NCI-60 one-dose screen, 48 h
Details: 10 µM unless noted
The panel holds about 83,000 compounds, 20% with a hit somewhere; the sample as a whole holds those more often. Active and inactive are the calls of the source. The calls were made as follows: active = growth percent below 10; inactive = the rest.
Could you please pick one outcome from this set? active, inactive

Some solved entries appear below for comparison.
* C=COC(=O)C(C)(C)C | inactive
* CC1(c2ccccc2)CO1 (stereo unspecified) | inactive
* CCCCOC(=O)c1ccc(NC(=O)CCl)cc1 | inactive
* BrCc1cccc(C[P+](c2ccccc2)(c2ccccc2)c2ccccc2)c1 | inactive
* O=S(=O)(OCCOS(=O)(=O)c1ccccc1)c1ccccc1 | inactive
* Clc1ccc(-c2noc(/C=C\c3ccccc3)n2)cc1 | inactive
* C1Cc2onc(-c3noc4c3CCC4)c2C1 | inactive
* Nc1ncnc2c1ncn2C1OC(CO)C2OC21 (stereo unspecified) | inactive

Lab log entry: Cc1cc2nc(C)c(C)nc2cc1C — outcome as called in the assay? inactive

Lab log entry: CC(=O)N(C)N=Nc1ccc(C)cc1 — outcome as called in the assay? inactive

Lab log entry: CN(CCCN(C)CCC1CCCCC1)CCC1CCCCC1 — outcome as called in the assay? inactive

* * *

Tested on: HOP-92 NSCLC
Assay: NCI-60 one-dose screen, 48 h (100 = growth as untreated, 0 = no growth, -100 = all killed)
Conditions: 10 µM unless noted
Experimental: Growth inhibition of the HOP-92 human Non-Small Cell Lung tumor cell line is measured as a screen for anti-cancer activity. Cells are grown in 96 well plates and exposed to the test compound for 48 hours. Compounds are tested at a single concentration, which is 10^-5 M for most compounds. The reported endpoint is percent growth (GI% or GIPRCNT), where numbers from 0 - 100% represent growth inhibition, and numbers from -100% - 0 represent cell death. […]
Compounds without any hit were thinned out: in the full panel of roughly 83,000, 20% have a hit.
OBSERVATION_TYPE: growth (%)
Unit % implied. Number only.

- Cc1cc(Cl)cc(Cc2cc(Cl)cc(C)c2O)c1O: -33
- CN(C)c1ccc(/C=C/C(=O)c2ccc(NC(N)=O)cc2)cc1: 103
- S=C(NCc1ccccc1)N1CCC(CCCC2CCN(C(=S)NCc3ccccc3)CC2)CC1: 77.5
- CSCCC(NC(=O)C(Cl)Cl)C(=O)O (configuration not stated): 85.2
- O=C(O)CSCC(=O)Nc1cc(C(F)(F)F)ccc1Cl: 104
- O=S(=O)(OCCOS(=O)(=O)c1ccccc1)c1ccccc1: 99.5
- Cc1ccc[n+](CCC(N)=O)c1: 91.5
- CSc1nc2[nH]ncc2c(=O)[nH]1: 106
- Oc1ccc(CCC2CCNc3ccccc32)cc1 (configuration not stated): 49.3
- CCCCc1ccc2nc(NC(=O)OC)[nH]c2c1: 60.7

Query (molecule): NC(=S)N/N=C/c1ccc(OC(=O)COc2ccccc2)cn1 ; field requested: growth 63.8

Query (molecule): O=S(=O)(O)C(C(I)I)S(=O)(=O)O ; field requested: growth 106

Query (molecule): COC(=O)c1cccc([N+](=O)[O-])c1 ; field requested: growth 95.1

* * *

Listed next: entries and their corresponding growth.
Test system: MDA-MB-435 melanoma
Assay: NCI-60 one-dose screen, 48 h (100 = growth as untreated, 0 = no growth, -100 = all killed)
Details: 10 µM unless noted
Compounds without any hit were thinned out: in the full panel of roughly 83,000, 20% have a hit.
Unit % implied. Number only.

Examples with their reported growth follow.
- CC12CCC3c4ccc(O)cc4CCC3C1CCC2=O (centres undefined): 112
- CCOC(=O)C1(N)CCCCC1: 99.2
- CCCCOC(=O)c1ccccc1O: 97.5

Query (molecule): Cc1ccc(C(C)C)c(OCC(=O)O)c1 ; field requested: growth 108

Query (molecule): O=S(=O)(OCCOS(=O)(=O)c1ccccc1)c1ccccc1 ; field requested: growth 107
